Origin of measurements: ChEMBL document CHEMBL1122784

- Assay: Half-life period in 95% ethanol in diffuse laboratory light at 28 degrees celsius
- Type: ADME
Readout: half-life

stdin: // returns reported half-life for input Cn1nnc2c(C(N)=O)ncn2c1=O [TEMOZOLOMIDE]
stdout: 8.25 h

* * *

- Assay: Half-life period in phosphate buffer at pH 7.4 in the dark at 28 degrees celsius.
- Type: ADME
Readout: half-life (h)
Answer in h, number only, no unit symbol.

stdin: // lookup half-life for NC(=O)c1ncn2c(=O)n(CCCl)nnc12 [MITOZOLOMIDE]
stdout: 1.63

stdin: Repeat with COc1ccc(-n2nnc3c(C(N)=O)ncn3c2=O)cc1
stdout: 2.58

stdin: Another compound to check: NC(=O)c1ncn2c(=O)n(-c3ccc(Cl)cc3)nnc12
stdout: 0.0483
